Please provide measured IC50 for the entries that follow.
SYSTEM_UNDER_TEST: hPTP1B1-400 (Homo sapiens)
Sequence (P18031 1-400): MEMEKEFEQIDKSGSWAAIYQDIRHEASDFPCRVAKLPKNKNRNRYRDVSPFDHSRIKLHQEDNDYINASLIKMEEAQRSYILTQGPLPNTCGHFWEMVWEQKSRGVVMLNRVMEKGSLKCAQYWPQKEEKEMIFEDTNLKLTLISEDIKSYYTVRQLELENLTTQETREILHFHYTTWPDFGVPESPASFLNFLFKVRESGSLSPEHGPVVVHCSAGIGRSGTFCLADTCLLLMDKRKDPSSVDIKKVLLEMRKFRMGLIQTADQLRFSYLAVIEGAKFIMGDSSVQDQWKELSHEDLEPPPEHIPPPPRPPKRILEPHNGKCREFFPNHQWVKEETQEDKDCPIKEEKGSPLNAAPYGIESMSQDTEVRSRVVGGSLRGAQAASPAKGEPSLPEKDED
METHOD: PTP1B inhibition assay (spectrophotometric, 4-nitrophenyl phosphate)
Format: biochemical
TEST_PARAMETERS: DoseResp model fit, Origin 8.0; axis C (mM); read-out: LOGx0 of the IC50 curve
One number for each entry, in mM.

Observe how each entry below is paired with its result.
q: Sample C/C(=C/CC[C@H](C)[C@@H]1CC[C@]2(C)C3=CC[C@H]4C(C)(C)[C@H](O)CC[C@]4(C)[C@H]3CC[C@@]12C)C(=O)O [Compound 49, 3α-Hydroxymasticadienonic acid] — what was its IC50?
a: 0.151

q: Moving on to the next molecule: `O=C1C[C@@H](c2ccccc2)Oc2cc(O)cc(O)c21`
a: 0.306

q: Again, but for `Oc1cccc(CCc2ccc3c(c2)OCO3)c1`
a: 0.662

q: `C[C@H]1C(=O)CC[C@@H]2[C@]1(C)CC[C@H]1[C@@]2(C)CC[C@@]2(C)[C@@H]3CC(C)(C)CC[C@]3(CO)CC[C@]12C` ?
a: 0.0332

List IC50 for every entry below, keeping the order given.
1. CC(=CCCC(C)C1CCC2(C)C3=CCC4C(C)(C)C(=O)CCC4(C)C3CCC12C)C(=O)O (centres unmarked)
2. C=C1C(=O)O[C@@H]2C[C@@]3(C)CCC=C(C)[C@@H]3C[C@H]12

a:
1. 0.0491
2. 0.443

List IC50 for every entry below, keeping the order given.
1. C[C@H]1C(=O)CC[C@@H]2[C@]1(C)CC[C@H]1[C@@]2(C)CC[C@@]2(C)[C@@H]3CC(C)(C)CC[C@]3(C)CC[C@]12C
2. C=C(C)C(C)(C)CCC(C)C1CCC2(C)C3CCC4C(C)(CCC(O)C4(C)C)C3=CCC12C (centres unmarked)

a:
[0.888, 0.399]
